Test system: Staph. aureus Oxford
PROTOCOL NOTES: MIC against human bacteria in vitro
Type: cell-based
CONDITION CONTEXT: Staphylococcus aureus; Staph. aureus Oxford; 5% chocolated horse blood agar, 18 hours; read-out: MIC
Exercise: for every item that follows, state its recorded MIC.
Answer format: number, then unit.

For Staph. aureus Oxford, provide MIC of C/C(=C\c1ncc(-c2ccc(S(C)(=O)=O)cc2)o1)C[C@@H]1OC[C@H](C[C@@H]2O[C@H]2[C@@H](C)[C@H](C)O)[C@@H](O)[C@H]1O [Example 10] please.
8 µg/mL

For Staph. aureus Oxford, provide MIC of C/C(=C\c1ncc(-c2ccc(C#N)cc2)o1)C[C@@H]1OC[C@H](C[C@@H]2O[C@H]2[C@@H](C)[C@H](C)O)[C@@H](O)[C@H]1O [Example 21] please.
4 µg/mL

For Staph. aureus Oxford, provide MIC of C/C(=C\c1ncc(CCCCCCCCO)o1)C[C@@H]1OC[C@H](C[C@@H]2O[C@H]2[C@@H](C)[C@H](C)O)[C@@H](O)[C@H]1O [Example 19] please.
4 µg/mL

For Staph. aureus Oxford, provide MIC of C/C(=C\c1ncc(C)o1)C[C@@H]1OC[C@H](C[C@@H]2O[C@H]2[C@@H](C)[C@H](C)O)[C@@H](O)[C@H]1O [Example 14, 5-Methyl-2-(1-normon-2-yl) oxazole A] please.
16 µg/mL

For Staph. aureus Oxford, provide MIC of C/C(=C\c1ncc(-c2ccccc2)s1)C[C@@H]1OC[C@H](C[C@@H]2O[C@H]2[C@@H](C)[C@H](C)O)[C@@H](O)[C@H]1O [Example 29, 2-(1-Normon-2-yl)-5-phenylthiazole A] please.
25 µg/mL

For Staph. aureus Oxford, provide MIC of C/C(=C\c1ncc(-c2cccc(C#N)c2)o1)C[C@@H]1OC[C@H](C[C@@H]2O[C@H]2[C@@H](C)[C@H](C)O)[C@@H](O)[C@H]1O [Example 5] please.
1.2 µg/mL

For Staph. aureus Oxford, provide MIC of C/C(=C\c1nc(-c2ccccc2)c(-c2ccccc2)o1)C[C@@H]1OC[C@H](C[C@@H]2O[C@H]2[C@@H](C)[C@H](C)O)[C@@H](O)[C@H]1O [Example 41, 4,5-Diphenyl-2-(1-normon-2-yl)oxazole A] please.
100 µg/mL

For Staph. aureus Oxford, provide MIC of C/C(=C\c1ncc(CCCCCCCC(=O)O)o1)C[C@@H]1OC[C@H](C[C@@H]2O[C@H]2[C@@H](C)[C@H](C)O)[C@@H](O)[C@H]1O [Example 12] please.
8 µg/mL

For Staph. aureus Oxford, provide MIC of C/C(=C\c1ncc(-c2ccc([S+](C)[O-])cc2)o1)C[C@@H]1OC[C@H](C[C@@H]2O[C@H]2[C@@H](C)[C@H](C)O)[C@@H](O)[C@H]1O (stereo partly drawn) [Example 11] please.
16 µg/mL

For Staph. aureus Oxford, provide MIC of C/C(=C\c1nc(C)c(-c2ccccc2)o1)C[C@@H]1OC[C@H](C[C@@H]2O[C@H]2[C@@H](C)[C@H](C)O)[C@@H](O)[C@H]1O [Example 40] please.
100 µg/mL

For Staph. aureus Oxford, provide MIC of C/C(=C\c1ncc(-c2cccc(S(C)(=O)=O)c2)o1)C[C@@H]1OC[C@H](C[C@@H]2O[C@H]2[C@@H](C)[C@H](C)O)[C@@H](O)[C@H]1O [Example 23] please.
4 µg/mL

For Staph. aureus Oxford, provide MIC of C/C(=C\c1ncc(-c2ccc(C=O)cc2)o1)C[C@@H]1OC[C@H](C[C@@H]2O[C@H]2[C@@H](C)[C@H](C)O)[C@@H](O)[C@H]1O [Example 15] please.
2 µg/mL

###

Exercise: for every item that follows, state its recorded MIC.
System: M. bovigenitalium ATCC 14173
PROTOCOL NOTES: MIC against mycoplasma in vitro
Format: cell-based
CONDITION CONTEXT: 144 h; M. bovigenitalium ATCC 14173; 6 days, 37° C.; read-out: MIC
Give the number; µg/mL is assumed, so skip it.

Recorded MIC for C/C(=C/c1ncc(-c2ccccc2)o1)C[C@@H]1OC[C@H](C[C@@H]2O[C@H]2[C@@H](C)[C@H](C)O)[C@@H](O)[C@H]1O [Example 2] , please?
0.5

Recorded MIC for COC(=O)c1ccc(-c2cnc(/C=C(\C)C[C@@H]3OC[C@H](C[C@@H]4O[C@H]4[C@@H](C)[C@H](C)O)[C@@H](O)[C@H]3O)o2)cc1 [Example 16] , please?
0.1

Recorded MIC for C/C(=C\c1ncc(-c2ccc([S+](C)[O-])cc2)o1)C[C@@H]1OC[C@H](C[C@@H]2O[C@H]2[C@@H](C)[C@H](C)O)[C@@H](O)[C@H]1O (stereo partly shown) [Example 11] , please?
0.1

Recorded MIC for C/C(=C\c1nc(C)c(C)o1)C[C@@H]1OC[C@H](C[C@@H]2O[C@H]2[C@@H](C)[C@H](C)O)[C@@H](O)[C@H]1O [Example 39, 4,5-Dimethyl-2-(1-normon-2-yl)oxazole A] , please?
5

Recorded MIC for C/C(=C\c1ncc(CCCCCCCC(=O)O)o1)C[C@@H]1OC[C@H](C[C@@H]2O[C@H]2[C@@H](C)[C@H](C)O)[C@@H](O)[C@H]1O [Example 12] , please?
1

Recorded MIC for COC(=O)CCCCCCCc1cnc(/C=C(\C)C[C@@H]2OC[C@H](C[C@@H]3O[C@H]3[C@@H](C)[C@H](C)O)[C@@H](O)[C@H]2O)o1 [Example 7] , please?
1

Recorded MIC for C/C(=C\c1cc(C)on1)C[C@@H]1OC[C@H](C[C@@H]2O[C@H]2[C@@H](C)[C@H](C)O)[C@@H](O)[C@H]1O [Example 33, 5-Methyl-3-(1-normon-2-yl) isoxazole A] , please?
0.5

###

Tested on: Strep. agalactiae SPA1
PROTOCOL NOTES: MIC against veterinary bacteria in vitro
CONDITION CONTEXT: Streptococcus agalactiae, SPA1, 18 h
ASSAY METRIC: MIC

Recorded MIC for C/C(=C\c1nc(C)c(-c2ccccc2)o1)C[C@@H]1OC[C@H](C[C@@H]2O[C@H]2[C@@H](C)[C@H](C)O)[C@@H](O)[C@H]1O , please?
> 80 µg/mL

Recorded MIC for C/C(=C\c1ncc(-c2cccc(C#N)c2)o1)C[C@@H]1OC[C@H](C[C@@H]2O[C@H]2[C@@H](C)[C@H](C)O)[C@@H](O)[C@H]1O , please?
0.625 µg/mL

Recorded MIC for CSc1cccc(-c2cnc(/C=C(\C)C[C@@H]3OC[C@H](C[C@@H]4O[C@H]4[C@@H](C)[C@H](C)O)[C@@H](O)[C@H]3O)o2)c1 , please?
10 µg/mL

###

Test system: K. aerogenes A
PROTOCOL NOTES: MIC against human bacteria in vitro
Assay type: cell-based
CONDITION CONTEXT: Klebsiella aerogenes; K. aerogenes A; 5% chocolated horse blood agar, 18 hours; read-out: MIC
Exercise: for every item that follows, state its recorded MIC.

Recorded MIC for C/C(=C\c1ncc(-c2ccc(S(=O)(=O)N(C)C)cc2)o1)C[C@@H]1OC[C@H](C[C@@H]2O[C@H]2[C@@H](C)[C@H](C)O)[C@@H](O)[C@H]1O [Example 24] , please?
> 64 µg/mL

Recorded MIC for C/C(=C\c1ncc(-c2ccc(C#N)cc2)o1)C[C@@H]1OC[C@H](C[C@@H]2O[C@H]2[C@@H](C)[C@H](C)O)[C@@H](O)[C@H]1O [Example 21] , please?
> 128 µg/mL

Recorded MIC for C/C(=C\c1ncc(-c2cccc([S+](C)[O-])c2)o1)C[C@@H]1OC[C@H](C[C@@H]2O[C@H]2[C@@H](C)[C@H](C)O)[C@@H](O)[C@H]1O (stereo partly drawn) [Example 25] , please?
> 128 µg/mL

###

Tested on: E. coli NCTC 10418
PROTOCOL NOTES: MIC against veterinary bacteria in vitro
CONDITION CONTEXT: Escherichia coli, NCTC10418, 18 h
Exercise: for every item that follows, state its recorded MIC.

Recorded MIC for CSc1cccc(-c2cnc(/C=C(\C)C[C@@H]3OC[C@H](C[C@@H]4O[C@H]4[C@@H](C)[C@H](C)O)[C@@H](O)[C@H]3O)o2)c1 , please?
> 80 µg/mL

Recorded MIC for C/C(=C\c1ncc(-c2ccsc2)o1)C[C@@H]1OC[C@H](C[C@@H]2O[C@H]2[C@@H](C)[C@H](C)O)[C@@H](O)[C@H]1O , please?
> 80 µg/mL

Recorded MIC for C/C(=C\c1ncc(-c2cccc(S(C)(=O)=O)c2)o1)C[C@@H]1OC[C@H](C[C@@H]2O[C@H]2[C@@H](C)[C@H](C)O)[C@@H](O)[C@H]1O , please?
> 80 µg/mL

Recorded MIC for C/C(=C\c1ncc(-c2ccc(S(=O)(=O)N(C)C)cc2)o1)C[C@@H]1OC[C@H](C[C@@H]2O[C@H]2[C@@H](C)[C@H](C)O)[C@@H](O)[C@H]1O , please?
> 80 µg/mL

Recorded MIC for C/C(=C\c1ncc(-c2ccc(C#N)cc2)o1)C[C@@H]1OC[C@H](C[C@@H]2O[C@H]2[C@@H](C)[C@H](C)O)[C@@H](O)[C@H]1O , please?
> 80 µg/mL

Recorded MIC for C/C(=C\c1ncc(-c2cccc(C#N)c2)o1)C[C@@H]1OC[C@H](C[C@@H]2O[C@H]2[C@@H](C)[C@H](C)O)[C@@H](O)[C@H]1O , please?
> 80 µg/mL

Recorded MIC for C/C(=C\c1cc(C)on1)C[C@@H]1OC[C@H](C[C@@H]2O[C@H]2[C@@H](C)[C@H](C)O)[C@@H](O)[C@H]1O , please?
> 80 µg/mL
